Origin of values: patent US20200283508A1

Each record here notes measured pKd.
- measured-on: recombinant Efb-O (Efb 68-98) (Staphylococcus aureus strain Newman, UniProt P08515 1-218 = GST)
- protocol: apparent Kd from half-maximal binding in ELISA (GraphPad Prism)
By convention, pKd is the negative base-10 log of a molar concentration.

binder	pKd
FBE5-B9 (scFv, V domains shown) VH: EVQLVESRGGVVQPGRSLRLSCAASGFTFSSYGMHWVRQAPGRGLEWVAVISYDGSNKYYADSVKGRFTISRDNSKNTLYLQMNGLRSDDTAVYYCARGGDDYGDYFDYWGQGTLVTVSS VL: QSVLTQPPSVSAAPGQKVTISCSGSSSNIGNNYVSWYQQLPGTAPKLLIYDNNKRPSGIPDRFSGSKSGTSATLGITGLQTGDEADYYCGTWDSSLSAAVFGGGTKLTVL	8.08

Turning now to a further binder:
// field: pKd; key: FBE5-F9 (scFv, V domains shown) VH: QMQLVQSGGGVVQPGRSLRLSCAASGFTFSSYGMHWVRQAPGKGLEWVAVISYDGSNKYYADSVKGRFTISRDNSKNTLYLQMNSLRAEDTAVYYCAKEGDGDYGGVLDYWGQGTLVTVSS VL: QSVLTQPPSVSAAPGQKVTISCSGSSSNIEKNYVSWYQQLPGTAPKLLIYDNNKRPSGIPDRFSGSKSGTSATLGITGLQTGDEADYYCGTWDSSLSAVVFGGGTKLTVL ; value = 8.10
